- TESTED TARGET: DNA polymerase alpha catalytic subunit (Homo sapiens)
- Sequence (P09884 whole entry): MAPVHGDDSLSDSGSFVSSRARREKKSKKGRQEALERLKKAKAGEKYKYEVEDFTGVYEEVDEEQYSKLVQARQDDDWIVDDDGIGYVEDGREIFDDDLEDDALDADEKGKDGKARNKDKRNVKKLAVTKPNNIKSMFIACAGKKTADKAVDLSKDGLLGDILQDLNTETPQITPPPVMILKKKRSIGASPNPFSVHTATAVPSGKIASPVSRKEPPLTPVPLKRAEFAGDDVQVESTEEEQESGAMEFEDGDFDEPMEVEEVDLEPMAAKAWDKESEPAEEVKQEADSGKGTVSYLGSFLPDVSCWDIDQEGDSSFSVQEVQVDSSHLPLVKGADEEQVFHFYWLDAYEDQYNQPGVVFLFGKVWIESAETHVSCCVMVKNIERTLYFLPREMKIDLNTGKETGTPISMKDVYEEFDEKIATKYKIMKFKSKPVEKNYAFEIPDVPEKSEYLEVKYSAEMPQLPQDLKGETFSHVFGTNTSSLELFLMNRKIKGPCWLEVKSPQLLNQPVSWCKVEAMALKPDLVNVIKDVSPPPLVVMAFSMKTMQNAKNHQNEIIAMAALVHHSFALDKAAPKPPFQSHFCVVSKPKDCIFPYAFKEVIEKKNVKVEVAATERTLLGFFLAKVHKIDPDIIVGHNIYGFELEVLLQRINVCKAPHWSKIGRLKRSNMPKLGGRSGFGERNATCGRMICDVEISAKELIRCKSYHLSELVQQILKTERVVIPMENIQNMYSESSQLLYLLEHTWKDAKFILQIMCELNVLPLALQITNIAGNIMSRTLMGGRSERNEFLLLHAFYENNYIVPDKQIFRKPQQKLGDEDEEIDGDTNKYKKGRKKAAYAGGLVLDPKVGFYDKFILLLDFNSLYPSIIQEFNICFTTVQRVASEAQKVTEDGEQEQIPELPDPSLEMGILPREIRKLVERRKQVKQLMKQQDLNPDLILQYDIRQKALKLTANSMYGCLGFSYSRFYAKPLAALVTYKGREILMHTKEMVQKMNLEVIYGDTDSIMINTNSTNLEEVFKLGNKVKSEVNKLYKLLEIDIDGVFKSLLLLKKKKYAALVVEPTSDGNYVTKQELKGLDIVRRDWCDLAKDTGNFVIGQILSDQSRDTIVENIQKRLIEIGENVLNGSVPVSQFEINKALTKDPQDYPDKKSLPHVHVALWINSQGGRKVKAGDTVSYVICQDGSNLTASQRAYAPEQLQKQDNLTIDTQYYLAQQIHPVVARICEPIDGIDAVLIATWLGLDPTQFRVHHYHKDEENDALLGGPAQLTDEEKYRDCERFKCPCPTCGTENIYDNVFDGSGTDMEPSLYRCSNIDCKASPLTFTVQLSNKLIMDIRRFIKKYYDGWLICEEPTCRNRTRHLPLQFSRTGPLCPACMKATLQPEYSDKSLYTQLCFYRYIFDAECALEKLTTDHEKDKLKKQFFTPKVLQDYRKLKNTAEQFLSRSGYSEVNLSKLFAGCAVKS
- PROTOCOL DETAILS: Inhibition of human DNA polymerase alpha
MEASURED METRIC: IC50

Find the measured IC50 of Nc1ccc(C#CCN(C(=O)Cc2ncc(C(F)(F)F)cc2C(F)(F)F)c2ccc(F)cc2)nn1 and report it.
> 100 µM

* * *

- MEASUREMENT CONDITIONS: mouse, microsomes
- Description: Metabolic stability in mouse liver microsomes assessed as clearance
Reported log10(CLH) values follow for various molecules
Scale type: logarithmic (base 10). Underlying CLH unit: µL/min/mg.

Observe how each entry below is paired with its result.
CN(C(=O)Cc1ccc(C(F)(F)F)cc1C(F)(F)F)c1ccncc1	1.75
O=C(NCC#CCN(C(=O)Cc1ccc(C(F)(F)F)cc1C(F)(F)F)c1ccccc1)c1ccccn1	2.67
CN(C(=O)Cn1nc2c(c1C(F)(F)F)CS(=O)(=O)C2)c1ccccc1	1.36
CN(C(=O)Cc1ccc(C(F)(F)F)cc1C(F)(F)F)c1cccnc1	2.33

Find the measured log10(CLH) of Cc1nnc(C(=O)NCC#CCN(C(=O)Cc2ccc(C(F)(F)F)cc2C(F)(F)F)c2ccccc2)o1 and report it.
2.79

Find the measured log10(CLH) of Cc1c2c(nn1CC(=O)N(C)c1ccccc1)CCC2 and report it.
2.67

Origin of measurements: ChEMBL document CHEMBL5108047
